- tested_target: Bcl-w ΔC29 (Homo sapiens, UniProt Q92843)
- assay_name: Alphascreen GST competition assay with biotinylated Bim BH3-26 peptide
- Format: binding
- measurement_setup: relative to linear 16-mer
Peptide text beside a SMILES is read from it.

| compound | decrease in binding affinity |
| --- | --- |
| CC[C@H](C)[C@H](NC(C)=O)C(=O)N[C@@H](Cc1c[nH]c2ccccc12)C(=O)N[C@H](C(=O)N[C@@H](C)C(=O)N[C@@H](CCC(N)=O)C(=O)N[C@@H](CCC(=O)O)C(=O)N[C@@H](CC(C)C)C(=O)N[C@@H](CCCNC(=N)N)C(=O)N[C@@H](CCCNC(=N)N)C(=O)N[C@H](C(=O)NCC(=O)N[C@@H](CC(=O)O)C(=O)N[C@@H](CCC(=O)O)C(=O)N[C@@H](C)C(=O)N[C@@H](CC(N)=O)C(=O)N[C@@H](C)C(N)=O)[C@@H](C)CC)[C@@H](C)CC [Peptide L] (Ac-IWIAQELRRIGDEANA-NH2) | 1,000 fold |
| CC[C@H](C)[C@H](NC(C)=O)C(=O)N[C@@H](Cc1c[nH]c2ccccc12)C(=O)N[C@H](C(=O)N[C@@H](C)C(=O)N[C@@H](CCC(N)=O)C(=O)N[C@@H](CCC(=O)O)C(=O)N[C@@H](CC(C)C)C(=O)N[C@@H](CCCNC(=N)N)C(=O)N[C@@H](CCCNC(=N)N)C(=O)N[C@@H](C)C(=O)NCC(=O)N[C@@H](CC(=O)O)C(=O)N[C@@H](CCC(=O)O)C(=O)N[C@@H](Cc1ccccc1)C(=O)N[C@@H](CC(N)=O)C(=O)N[C@@H](C)C(N)=O)[C@@H](C)CC [Peptide K] (Ac-IWIAQELRRAGDEFNA-NH2) | 3 fold |
| CC[C@H](C)[C@H](NC(C)=O)C(=O)N[C@@H](Cc1c[nH]c2ccccc12)C(=O)N[C@@H](C)C(=O)N[C@@H](C)C(=O)N[C@@H](CCC(N)=O)C(=O)N[C@@H](CCC(=O)O)C(=O)N[C@@H](CC(C)C)C(=O)N[C@@H](CCCNC(=N)N)C(=O)N[C@@H](CCCNC(=N)N)C(=O)N[C@H](C(=O)NCC(=O)N[C@@H](CC(=O)O)C(=O)N[C@@H](CCC(=O)O)C(=O)N[C@@H](Cc1ccccc1)C(=O)N[C@@H](CC(N)=O)C(=O)N[C@@H](C)C(N)=O)[C@@H](C)CC [Peptide I] (Ac-IWAAQELRRIGDEFNA-NH2) | 100 fold |

---

- tested_target: Bcl-w ΔC29 (Homo sapiens)
- Sequence (Q92843 1-164 limits assumed): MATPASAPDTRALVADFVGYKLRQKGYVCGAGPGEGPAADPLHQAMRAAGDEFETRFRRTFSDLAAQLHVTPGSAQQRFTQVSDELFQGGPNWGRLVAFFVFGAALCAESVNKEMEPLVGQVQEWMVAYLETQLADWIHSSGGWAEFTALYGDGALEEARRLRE
- assay_name: Alphascreen GST competition assay with biotinylated Bim BH3-26 peptide
- Format: binding
- measurement_setup: Examples 8 and 9
Peptide text beside a SMILES is read from it.
quantity_kind: binding affinity for Bcl-w ΔC29 compared to the linear 16-mer, in words

| compound | result |
| --- | --- |
| CC[C@H](C)[C@H](NC(C)=O)C(=O)N[C@@H](CCCNC(=N)N)C(=O)N[C@H](C(=O)N[C@@H](C)C(=O)N[C@@H](CCC(N)=O)C(=O)N[C@@H](CCC(=O)O)C(=O)N[C@@H](CC(C)C)C(=O)N[C@@H](CCCNC(=N)N)C(=O)N[C@@H](CCCNC(=N)N)C(=O)N[C@H](C(=O)NCC(=O)N[C@@H](CC(=O)O)C(=O)N[C@@H](CCC(=O)O)C(=O)N[C@@H](Cc1ccccc1)C(=O)N[C@@H](CC(N)=O)C(=O)N[C@@H](C)C(N)=O)[C@@H](C)CC)[C@@H](C)CC [Q] (Ac-IRIAQELRRIGDEFNA-NH2) | drop in binding |
| CC[C@H](C)[C@H](NC(C)=O)C(=O)N[C@@H](C)C(=O)N[C@H](C(=O)N[C@@H](C)C(=O)N[C@@H](CCC(N)=O)C(=O)N[C@@H](CCC(=O)O)C(=O)N[C@@H](CC(C)C)C(=O)N[C@@H](CCCNC(=N)N)C(=O)N[C@@H](CCCNC(=N)N)C(=O)N[C@H](C(=O)NCC(=O)N[C@@H](CC(=O)O)C(=O)N[C@@H](CCC(=O)O)C(=O)N[C@@H](Cc1ccccc1)C(=O)N[C@@H](CC(N)=O)C(=O)N[C@@H](C)C(N)=O)[C@@H](C)CC)[C@@H](C)CC [P] (Ac-IAIAQELRRIGDEFNA-NH2) | drop in binding |
